The reported measurements were obtained from patent US12419976B2.

# protocol_notes: Photophysical properties of Cy5 dyes and hybrid tracers in PBS
# Assay type: physicochemical
# measurement_setup: determined using the ε of the hybrid tracer's corresponding fluorophore
reported_property: Brightness

Please review the entries below; each comes with its answer.
compound	Brightness
CC(=O)SCC(=O)NC(CO)C(=O)NC(CO)C(=O)NC(CO)C(=O)NCCCCCC(=O)NCCCCN1C(=CC=CC=CC2=[N+](CCCCCC(=O)NCCCCC(NC(=O)NC(CCC(=O)O)C(=O)O)C(=O)O)c3ccc4ccccc4c3C2(C)C)C(C)(C)c2ccccc21 (stereo not shown)	3^‡ 10^3 M^−1 · cm^−1
CC(=O)SCC(=O)NC(CO)C(=O)NC(CO)C(=O)NC(CO)C(=O)NCCCCCC(=O)NCCCCN1C(=CC=CC=CC2=[N+](CCCCCC(=O)NCCCCC(NC(=O)NC(CCC(=O)O)C(=O)O)C(=O)O)c3ccccc3C2(C)C)C(C)(C)c2c1ccc1ccccc21 (stereo not shown)	5^‡ 10^3 M^−1 · cm^−1
CC(=O)SCC(=O)NC(CO)C(=O)NC(CO)C(=O)NC(CO)C(=O)NCCCCCC(=O)NCCCCN1C(=CC=CC=CC2=[N+](CCCCCC(=O)NCCCCC(NC(=O)NC(CCC(=O)O)C(=O)O)C(=O)O)c3ccccc3C2(C)C)C(C)(C)c2cc(S(=O)(=O)[O-])ccc21 (stereo not shown) [EuK-Cy5-(SO3)MAS3]	10^‡ 10^3 M^−1 · cm^−1

Which Brightness is reported for this compound? CC(=O)SCC(=O)NC(CO)C(=O)NC(CO)C(=O)NC(CO)C(=O)NCCCCCC(=O)NCCCCN1C(=CC=CC=CC2=[N+](CCCCCC(=O)NCCCCC(NC(=O)NC(CCC(=O)O)C(=O)O)C(=O)O)c3ccc4ccccc4c3C2(C)C)C(C)(C)c2c1ccc1ccccc21 (stereo not shown)
7^‡ 10^3 M^−1 · cm^−1

* * *

# tested_on: PSMA (Homo sapiens, UniProt Q04609)
# Construct: endogenous in cells
# Sequence (Q04609 whole entry): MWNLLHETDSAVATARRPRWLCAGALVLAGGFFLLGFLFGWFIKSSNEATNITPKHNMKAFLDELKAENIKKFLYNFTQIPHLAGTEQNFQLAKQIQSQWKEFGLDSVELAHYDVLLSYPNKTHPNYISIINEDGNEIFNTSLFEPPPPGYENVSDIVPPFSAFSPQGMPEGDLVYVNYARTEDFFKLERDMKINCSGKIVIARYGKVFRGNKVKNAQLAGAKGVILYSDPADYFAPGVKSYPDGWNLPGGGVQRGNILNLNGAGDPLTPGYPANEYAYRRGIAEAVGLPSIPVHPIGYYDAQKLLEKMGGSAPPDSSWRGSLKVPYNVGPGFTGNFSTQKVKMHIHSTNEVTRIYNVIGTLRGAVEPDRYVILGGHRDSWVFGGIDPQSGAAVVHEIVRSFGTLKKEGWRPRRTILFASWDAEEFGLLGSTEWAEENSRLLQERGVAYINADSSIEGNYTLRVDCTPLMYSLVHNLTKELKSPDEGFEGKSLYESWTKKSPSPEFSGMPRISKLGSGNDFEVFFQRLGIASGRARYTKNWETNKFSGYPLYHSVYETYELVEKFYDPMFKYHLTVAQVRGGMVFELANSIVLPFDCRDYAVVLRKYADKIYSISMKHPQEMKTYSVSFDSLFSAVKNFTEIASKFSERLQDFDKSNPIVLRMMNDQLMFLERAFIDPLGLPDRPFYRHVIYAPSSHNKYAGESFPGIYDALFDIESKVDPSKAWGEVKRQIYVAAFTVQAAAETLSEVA
# protocol_notes: Competitive binding assay, LNCaP cells, EuK[125I]I-BA radioligand
# measurement_setup: human LNCaP cells, EuK[125I]I-BA competitive radioligand; n ≥ 3; read-out: IC50 (PSMA affinity)
Kindly state pIC50 for each of the entries shown.
Give bare numbers, as −log10 of the molar value.

compound	pIC50
CC(=O)SCC(=O)NC(CO)C(=O)NC(CO)C(=O)NC(CO)C(=O)NCCCCCC(=O)NCCCCN1C(=CC=CC=CC2=[N+](CCCCCC(=O)NCCCCC(NC(=O)NC(CCC(=O)O)C(=O)O)C(=O)O)c3ccccc3C2(C)C)C(C)(C)c2ccccc21 (centres unmarked)	6.76
CC(=O)SCC(=O)NC(CO)C(=O)NC(CO)C(=O)NC(CO)C(=O)NCCCCCC(=O)NCCCCN1C(=CC=CC=CC2=[N+](CCCCCC(=O)NCCCCC(NC(=O)NC(CCC(=O)O)C(=O)O)C(=O)O)c3ccccc3C2(C)C)C(C)(C)c2c1ccc1ccccc21 (centres unmarked)	6.78

// each listed compound needs a value for pIC50
1. CC(=O)SCC(=O)NC(CO)C(=O)NC(CO)C(=O)NC(CO)C(=O)NCCCCCC(=O)NCCCCN1C(=CC=CC=CC2=[N+](CCCCCC(=O)NCCCCC(NC(=O)NC(CCC(=O)O)C(=O)O)C(=O)O)c3ccccc3C2(C)C)C(C)(C)c2cc(S(=O)(=O)[O-])ccc21 (centres unmarked) [EuK-Cy5-(SO3)MAS3]
2. CC(=O)SCC(=O)NC(CO)C(=O)NC(CO)C(=O)NC(CO)C(=O)NCCCCCC(=O)NCCCCN1C(=CC=CC=CC2=[N+](CCCCCC(=O)NCCCCC(NC(=O)NC(CCC(=O)O)C(=O)O)C(=O)O)c3ccc4ccccc4c3C2(C)C)C(C)(C)c2ccccc21 (centres unmarked)
3. CC(=O)SCC(=O)NC(CO)C(=O)NC(CO)C(=O)NC(CO)C(=O)NCCCCCC(=O)NCCCCN1C(=CC=CC=CC2=[N+](CCCCCC(=O)NCCCCC(NC(=O)NC(CCC(=O)O)C(=O)O)C(=O)O)c3ccc4ccccc4c3C2(C)C)C(C)(C)c2c1ccc1ccccc21 (centres unmarked)

1. 6.93
2. 6.95
3. 6.46

* * *

# protocol_notes: Photophysical properties of Cy5 dyes and hybrid tracers in PBS
# Type: physicochemical
reported_property: Stokes shift (nm)
One number for each entry, in nm.

Please review the entries below; each comes with its answer.
compound	reported
CC(=O)SCC(=O)NC(CO)C(=O)NC(CO)C(=O)NC(CO)C(=O)NCCCCCC(=O)NCCCCN1C(=CC=CC=CC2=[N+](CCCCCC(=O)NCCCCC(NC(=O)NC(CCC(=O)O)C(=O)O)C(=O)O)c3ccccc3C2(C)C)C(C)(C)c2c1ccc1ccccc21 (stereo not drawn)	17
CC(=O)SCC(=O)NC(CO)C(=O)NC(CO)C(=O)NC(CO)C(=O)NCCCCCC(=O)NCCCCN1C(=CC=CC=CC2=[N+](CCCCCC(=O)NCCCCC(NC(=O)NC(CCC(=O)O)C(=O)O)C(=O)O)c3ccccc3C2(C)C)C(C)(C)c2ccccc21 (stereo not drawn)	18
CC(=O)SCC(=O)NC(CO)C(=O)NC(CO)C(=O)NC(CO)C(=O)NCCCCCC(=O)NCCCCN1C(=CC=CC=CC2=[N+](CCCCCC(=O)NCCCCC(NC(=O)NC(CCC(=O)O)C(=O)O)C(=O)O)c3ccc(S(=O)(=O)[O-])cc3C2(C)C)C(C)(C)c2ccccc21 (stereo not drawn) [EuK(SO3)-Cy5-MAS3]	16
CC(=O)SCC(=O)NC(CO)C(=O)NC(CO)C(=O)NC(CO)C(=O)NCCCCCC(=O)NCCCCN1C(=CC=CC=CC2=[N+](CCCCCC(=O)NCCCCC(NC(=O)NC(CCC(=O)O)C(=O)O)C(=O)O)c3ccc4ccccc4c3C2(C)C)C(C)(C)c2c1ccc1ccccc21 (stereo not drawn)	18
CC(=O)SCC(=O)NC(CO)C(=O)NC(CO)C(=O)NC(CO)C(=O)NCCCCCC(=O)NCCCCN1C(=CC=CC=CC2=[N+](CCCCCC(=O)NCCCCC(NC(=O)NC(CCC(=O)O)C(=O)O)C(=O)O)c3ccc4ccccc4c3C2(C)C)C(C)(C)c2ccccc21 (stereo not drawn)	18

Pending compound:
Which Stokes shift is reported for this compound? CC(=O)SCC(=O)NC(CO)C(=O)NC(CO)C(=O)NC(CO)C(=O)NCCCCCC(=O)NCCCCN1C(=CC=CC=CC2=[N+](CCCCCC(=O)NCCCCC(NC(=O)NC(CCC(=O)O)C(=O)O)C(=O)O)c3ccccc3C2(C)C)C(C)(C)c2cc(S(=O)(=O)[O-])ccc21 (stereo not drawn) [EuK-Cy5-(SO3)MAS3]
16

* * *

# protocol_notes: Photophysical properties of Cy5 dyes and hybrid tracers in PBS
# Format: physicochemical
reported_property: λex (nm)
Give bare numbers, in nm.

Please review the entries below; each comes with its answer.
compound	reported
CC(=O)SCC(=O)NC(CO)C(=O)NC(CO)C(=O)NC(CO)C(=O)NCCCCCC(=O)NCCCCN1C(=CC=CC=CC2=[N+](CCCCCC(=O)NCCCCC(NC(=O)NC(CCC(=O)O)C(=O)O)C(=O)O)c3ccc4ccccc4c3C2(C)C)C(C)(C)c2c1ccc1ccccc21 (stereo not drawn)	682
CC(=O)SCC(=O)NC(CO)C(=O)NC(CO)C(=O)NC(CO)C(=O)NCCCCCC(=O)NCCCCN1C(=CC=CC=CC2=[N+](CCCCCC(=O)NCCCCC(NC(=O)NC(CCC(=O)O)C(=O)O)C(=O)O)c3ccc4ccccc4c3C2(C)C)C(C)(C)c2ccccc21 (stereo not drawn)	664
CC(=O)SCC(=O)NC(CO)C(=O)NC(CO)C(=O)NC(CO)C(=O)NCCCCCC(=O)NCCCCN1C(=CC=CC=CC2=[N+](CCCCCC(=O)NCCCCC(NC(=O)NC(CCC(=O)O)C(=O)O)C(=O)O)c3ccc(S(=O)(=O)[O-])cc3C2(C)C)C(C)(C)c2ccccc21 (stereo not drawn) [EuK(SO3)-Cy5-MAS3]	648

// each listed compound needs a value for λex
1. CC(=O)SCC(=O)NC(CO)C(=O)NC(CO)C(=O)NC(CO)C(=O)NCCCCCC(=O)NCCCCN1C(=CC=CC=CC2=[N+](CCCCCC(=O)NCCCCC(NC(=O)NC(CCC(=O)O)C(=O)O)C(=O)O)c3ccccc3C2(C)C)C(C)(C)c2cc(S(=O)(=O)[O-])ccc21 (stereo not drawn) [EuK-Cy5-(SO3)MAS3]
2. CC(=O)SCC(=O)NC(CO)C(=O)NC(CO)C(=O)NC(CO)C(=O)NCCCCCC(=O)NCCCCN1C(=CC=CC=CC2=[N+](CCCCCC(=O)NCCCCC(NC(=O)NC(CCC(=O)O)C(=O)O)C(=O)O)c3ccccc3C2(C)C)C(C)(C)c2ccccc21 (stereo not drawn)
3. CC(=O)SCC(=O)NC(CO)C(=O)NC(CO)C(=O)NC(CO)C(=O)NCCCCCC(=O)NCCCCN1C(=CC=CC=CC2=[N+](CCCCCC(=O)NCCCCC(NC(=O)NC(CCC(=O)O)C(=O)O)C(=O)O)c3ccccc3C2(C)C)C(C)(C)c2c1ccc1ccccc21 (stereo not drawn)

1: 648; 2: 644; 3: 663
